- assayed-system: T1, cynomolgus CCR8 (cynomolgus, UniProt G7NYJ2 1-355)
- T1 construct: whole, on cells; also called HEK293-Cynomolgus CCR8; ExpiCHO-S cynomolgus CCR8
- T1 sequence (G7NYJ2 entry or part of it): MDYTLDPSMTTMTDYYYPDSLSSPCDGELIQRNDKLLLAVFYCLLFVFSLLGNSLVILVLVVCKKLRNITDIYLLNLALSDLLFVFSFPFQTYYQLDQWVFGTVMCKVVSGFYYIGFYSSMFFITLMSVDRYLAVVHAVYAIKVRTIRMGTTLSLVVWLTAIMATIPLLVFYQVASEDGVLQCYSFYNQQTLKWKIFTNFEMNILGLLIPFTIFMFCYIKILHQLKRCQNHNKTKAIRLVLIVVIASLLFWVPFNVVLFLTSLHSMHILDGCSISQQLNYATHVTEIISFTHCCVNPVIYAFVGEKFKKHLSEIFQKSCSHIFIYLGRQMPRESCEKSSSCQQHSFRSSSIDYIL
- test-name: FACS, hybridoma supernatant on cynomolgus CCR8 cells
- Protocol: Binding of hybridoma supernatant on CHO-K1-human CCR8 and ExpiCHO-S cynomolgus CCR8 cells. A total of 660 96-well plates were seeded and screened by FACS binding from the hybridoma derived from immunized animals. To obtain antibodies cross-reactive to human and cynomolgus CCR8, hybridomas from mice immunized with human and cynomolgus CCR8 DNAs were screened by FACS. […]
Listed here are binders together with their documented Binding Ratio (GFP + MFI)/(GFP - MFI).
Please state the value as a number alone, without comment.

The following binders have reported results that may help.
Quick check: Binding Ratio (GFP + MFI)/(GFP - MFI) of 191E12H8 (antibody, V domains shown, Murine hybridoma antibody) VH: DVQLQESGPGLVKPSQSLSLTCSVTGYSITSGYYWNWIRQFPGNKLEWMGYISYDGSNNYNPSLKNRISITRDISKNQFFLKLNSVTTEDTATYYCARQIGLRRGAMDYWGQGTSVTVSS VL: DIQMTQSSSYLSVSLGGRVTITCKASDHINTWLAWYQQKPGNAPRLLISGSTSLKAGVASRFSGSGSGKDYTLTITSLQTEDVATYYCQQYWGIPFTFGGGTKLEIK ?
91.4

Quick check: Binding Ratio (GFP + MFI)/(GFP - MFI) of 204A2G12 (antibody, V domains shown, Murine hybridoma antibody) VH: DVQLQESGPGLVKPSQSLSLTCSVTGYSITSGYYWNWIRQFPGNKLEWMGYISYDGTNNYNPSLKNRISITRDTSKNQFFLKLTSVTTEDTATYYCARQVGLRRAWFAYWGQGTLVTVSA VL: DIQMTQSSSFLSVSLGGRVTITCKASDHINYWLAWYQQKPGNAPRLLISGATSLETGVPSRFSGSGSGKDYTLTITSLQNEDVATYYCHQYWSTPTFGSGTKLEIK ?
133

Quick check: Binding Ratio (GFP + MFI)/(GFP - MFI) of 153D4G2 (antibody, V domains shown, Murine hybridoma antibody; also called 153D3G2; 1531D4G2) VH: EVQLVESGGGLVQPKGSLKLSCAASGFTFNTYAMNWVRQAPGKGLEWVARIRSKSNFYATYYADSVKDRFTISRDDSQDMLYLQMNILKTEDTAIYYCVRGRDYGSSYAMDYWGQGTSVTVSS VL: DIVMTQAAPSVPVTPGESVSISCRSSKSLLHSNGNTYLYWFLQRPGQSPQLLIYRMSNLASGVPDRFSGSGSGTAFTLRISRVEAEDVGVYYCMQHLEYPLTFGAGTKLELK ?
127

Quick check: Binding Ratio (GFP + MFI)/(GFP - MFI) of 499B1A5 (antibody, V domains shown, Murine hybridoma antibody (supernatant)) VH: EVQLVESGGGLVQPKGSLKLSCAASGFTFNTYAMNWVRQAPGKGLEWVARIRSKSNNYATYYADSVKDRFTISRDDSQSMLYLQMNNLKTEDTAMYYCVRHGRSGYLYAMDYWGQGTSVTVSS VL: DIVMTQAAFSNPVTLGTSASISCRSSKSLLHSNGITYLYWYLQKPGQSPQLLIYQMSNLASGVPDRFSSSGSGTDFTLRISRVEAEDVGVYYCAQSLELPLTFGAGTKLELK ?
35.1

Quick check: Binding Ratio (GFP + MFI)/(GFP - MFI) of 273H2G6 (antibody, V domains shown, Murine hybridoma antibody) VH: DVQLQESGPGLVKPSQSLSLTCSVTGYSITSGYYWNWIRQFPGNKLEWMGYISYDGSNNYNPSLKNRISITRDISKNQFFLKLNSVTTEDTATYYCARQVGLRRGAMDYWGQGTSVTVSS VL: DIQMTQSSSYLSVSLGGRVTITCKASDHINNWLAWYQQKPGNAPRLLISGSTSLKAGVASRFSGSGSGKDYTLSITSLQTEDVATYYCQQYWSIPYTFGGGTKLEIK ?
112

Others:
Quick check: Binding Ratio (GFP + MFI)/(GFP - MFI) of 234G9C12 (antibody, V domains shown, Murine hybridoma antibody; also called 234G4C12) VH: DVQLQESGPGLVKPSQSLSLTCSVTGYSITSGYYWNWIRQFPGNKLEWMGYTSYDGSNNYNPSFKNRISITRDISKNQFFLKLNSVTTEDTATYYCARQIGLRRGAMDHWGQGTSVTVSS VL: DIQMTQSSSYLSVSLGGRVTITCKASDHINNWLAWYQQKPGNAPRLLISGSTSLRAGVASRFSGSGSGKDYTLTITSLQTEDVATYYCQQYWGIPFTFGGGTKLEIK ?
101

Data origin, for the record: patent US20250034266A1
